Each entry below lists one item and its recorded pEC50 value.
- Experimental System: hGIPR (Homo sapiens, UniProt P48546)
- Sequence (P48546 22-466): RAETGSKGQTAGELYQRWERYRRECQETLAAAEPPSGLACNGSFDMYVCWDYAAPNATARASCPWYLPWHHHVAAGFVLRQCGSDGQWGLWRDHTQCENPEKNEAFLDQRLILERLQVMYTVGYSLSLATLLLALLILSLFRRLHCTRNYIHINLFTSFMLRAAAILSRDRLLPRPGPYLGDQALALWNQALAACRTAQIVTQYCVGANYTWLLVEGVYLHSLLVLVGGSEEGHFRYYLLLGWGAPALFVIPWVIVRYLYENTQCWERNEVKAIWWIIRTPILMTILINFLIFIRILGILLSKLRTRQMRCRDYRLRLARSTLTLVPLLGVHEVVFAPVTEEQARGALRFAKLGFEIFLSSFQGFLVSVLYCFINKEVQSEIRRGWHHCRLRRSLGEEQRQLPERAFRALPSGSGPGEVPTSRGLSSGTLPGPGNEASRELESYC
- Measurement Notes: Functional cAMP activation in the presence of 0.1% casein (no HSA);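 note: intracellular cAMP rise after 30 min at 37 °C read by HTRF against a standard curve, scaled between buffer alone (0%) and top control ligand concentration (100%), four-parameter fit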
- Format: cell-based
- Condition Parameters: read-out: Relative cAMP EC50, hGIPR
pEC50: −log10 of the molar value. Starred links: 1 amine or outer side, 2 acyl side, 3 side chain; linkers in the order of their positions; H or OH if unused. Non-standard residues stand in square brackets, D forms with d. Groups on a side chain read outwards from the residue. No end group written: not given here. *: point of attachment. C18 diacid = O=C(O)CCCCCCCCCCCCCCCCC(=O)*; αMePhe(2-F) = C[C@](N)(Cc1ccccc1F)C(=O)O; γGlu = O=C(O)[C@H](CCC(=O)[*:2])N[*:1]; αMe4Pal = C[C@](N)(Cc1ccncc1)C(=O)O; αMeY = C[C@](N)(Cc1ccc(O)cc1)C(=O)O; 4Pal = N[C@@H](Cc1ccncc1)C(=O)O; αMeL = CC(C)C[C@](C)(N)C(=O)O; αMeS = C[C@](N)(CO)C(=O)O; Orn = NCCC[C@H](N)C(=O)O; AEEA = NCCOCCOCC(=O)O; Aib = CC(C)(N)C(=O)O
Observed Property: pEC50

- Substance: "H-Y[Aib]QGT[αMePhe(2-F)]TSD[4Pal][αMeS]ILLD[Orn]K([γGlu-γGlu-C18 diacid])AQ[Aib][Orn]FI[dE]YLIEGGPSSGEPPPEGSEE-NH2 [Example 603]"
  Experimental System: "hGIPR (Homo sapiens, UniProt P48546)"
  Result: 9.99
- Substance: "H-Y[Aib]QGT[αMePhe(2-F)]TSD[4Pal]SILLDKK([γGlu-γGlu-C18 diacid])AQ[Aib]AFIE[αMe4Pal]LEEGGPSSGAPPPSGTE-NH2 [Example 552]"
  Experimental System: "hGIPR (Homo sapiens, UniProt P48546)"
  Result: 10.75
- Substance: "Y[Aib]QGT[αMePhe(2-F)]TSD[4Pal][αMeS]I[αMeL]LD[Orn]K([γGlu-γGlu-C18 diacid])AQ[Aib][Orn]FI[dE][αMeY]LAEGGPSSGEPPPSGTEE-NH2 [Example 571]"
  Experimental System: "hGIPR (Homo sapiens, UniProt P48546)"
  Result: 10.13
- Substance: "H-Y[Aib]QGT[αMePhe(2-F)]TSDYSILLDKK([AEEA-γGlu-C18 diacid])AQ[Aib]AFIEYLEEGGPSSGAPPPEEG-NH2 [Example 399]"
  Experimental System: "hGIPR (Homo sapiens, UniProt P48546)"
  Result: 10.38
- Substance: "Y[Aib]QGT[αMePhe(2-F)]TSD[4Pal][αMeS]I[αMeL]LD[Orn]K([AEEA-γGlu-C18 diacid])YQ[αMe4Pal]EFI[dE][αMeY]LVEGGPSSGAPPPSGS-NH2 [Example 767]"
  Experimental System: "hGIPR (Homo sapiens, UniProt P48546)"
  Result: 11.10
- Substance: "Y[Aib]QGT[αMePhe(2-F)]TSD[4Pal][αMeS]I[αMeL]LD[Orn]K([AEEA-γGlu-C18 diacid])AQ[αMe4Pal]EFI[dE][αMeY]LIEGGPSSGEPPPEGTGE-NH2 [Example 763]"
  Experimental System: "hGIPR (Homo sapiens, UniProt P48546)"
  Result: 11.14
- Substance: "H-Y[Aib]QGT[αMePhe(2-F)]TSD[4Pal][αMeS]I[αMeL]LD[Orn]K([AEEA-γGlu-C18 diacid])AQ[Aib][Orn]FIEYLIEGGPSSGEPPPEEG-NH2 [Example 476]"
  Experimental System: "hGIPR (Homo sapiens, UniProt P48546)"
  Result: 10.88
- Substance: "H-Y[Aib]QGT[αMePhe(2-F)]TSD[4Pal][αMeS]I[αMeL]LD[Orn]K([AEEA-γGlu-C18 diacid])AQ[αMe4Pal]EFI[dE][αMeY]LVEGGPSSGAPPPSGE-NH2 [Example 749]"
  Experimental System: "hGIPR (Homo sapiens, UniProt P48546)"
  Result: 11.14
- Substance: "H-Y[Aib]QGT[αMePhe(2-F)]TSD[4Pal][αMeS]ILLD[Orn]K([γGlu-γGlu-C18 diacid])AQ[Aib][Orn]FI[dE]YLIEGGPSSGEPPPSGTE-NH2 [Example 531]"
  Experimental System: "hGIPR (Homo sapiens, UniProt P48546)"
  Result: 10.16
- Substance: "H-Y[Aib]QGT[αMePhe(2-F)]TSD[4Pal]SI[αMeL]LD[Orn]K([AEEA-γGlu-C18 diacid])AQ[Aib][Orn]FIEYLLEGGPSSGEPPPEEG-NH2 [Example 494]"
  Experimental System: "hGIPR (Homo sapiens, UniProt P48546)"
  Result: 10.85
- Substance: "H-Y[Aib]QGT[αMePhe(2-F)]TSD[4Pal][αMeS]I[αMeL]LD[Orn]K([AEEA-γGlu-C18 diacid])AQ[Aib][Orn]FI[dE][αMeY]LIEGGPSSGEPPPEEG-NH2 [Example 462]"
  Experimental System: "hGIPR (Homo sapiens, UniProt P48546)"
  Result: 10.83
- Substance: "H-Y[Aib]QGT[αMePhe(2-F)]TSD[4Pal]SI[αMeL]LD[Orn]K([AEEA-γGlu-C18 diacid])AQ[αMe4Pal]EFI[dE][αMeY]LLEGGPSSGEPPPSGS-NH2 [Example 645]"
  Experimental System: "hGIPR (Homo sapiens, UniProt P48546)"
  Result: 11.14
- Substance: "H-Y[Aib]QGT[αMePhe(2-F)]TSD[4Pal][αMeS]I[αMeL]LD[Orn]K([AEEA-γGlu-C18 diacid])AQ[αMe4Pal]EFI[dE][αMeY]LVEGGPSSGEPPPSGS-NH2 [Example 733]"
  Experimental System: "hGIPR (Homo sapiens, UniProt P48546)"
  Result: 11.05
- Substance: "Y[Aib]QGT[αMePhe(2-F)]TSD[4Pal]SI[αMeL]LD[Orn]K([AEEA-γGlu-C18 diacid])AQ[αMe4Pal][Orn]FI[dE][αMeY]LIEGGPSSGDPPPESE-NH2 [Example 729]"
  Experimental System: "hGIPR (Homo sapiens, UniProt P48546)"
  Result: 10.95
- Substance: "H-Y[Aib]QGT[αMePhe(2-F)]TSD[4Pal][αMeS]I[αMeL]LD[Orn]K([γGlu-γGlu-C18 diacid])AQ[Aib][Orn]FI[dE]YLIEGGPSSGEPPPSGTEEE-NH2 [Example 540]"
  Experimental System: "hGIPR (Homo sapiens, UniProt P48546)"
  Result: 10.53
- Substance: "Y[Aib]QGT[αMePhe(2-F)]TSD[4Pal][αMeS]I[αMeL]LD[Orn]K([γGlu-γGlu-C18 diacid])AQ[Aib][Orn]FI[dE][αMeY]LQEGGPSSGEPPPSGTE-NH2 [Example 504]"
  Experimental System: "hGIPR (Homo sapiens, UniProt P48546)"
  Result: 10.44
- Substance: "Y[Aib]Q[dA]T[αMePhe(2-F)]TSD[4Pal]SI[αMeL]LD[Orn]K([AEEA-γGlu-C18 diacid])AQ[αMe4Pal][Orn]FI[dE][αMeY]LIEGGPSSGEPPPESE-NH2 [Example 765]"
  Experimental System: "hGIPR (Homo sapiens, UniProt P48546)"
  Result: 10.19
- Substance: "Y[Aib]QGT[αMePhe(2-F)]TSD[4Pal]SI[αMeL]LD[Orn]K([AEEA-γGlu-C18 diacid])AQ[αMe4Pal][Orn]FI[dE][αMeY]LIEGGPSSGEPPPEGTE-NH2 [Example 679]"
  Experimental System: "hGIPR (Homo sapiens, UniProt P48546)"
  Result: 10.91
- Substance: "H-Y[Aib]QGT[αMePhe(2-F)]TSD[4Pal]SILLDKK([γGlu-γGlu-C18 diacid])AQ[Aib]AFIEYLEEGGPSSGAPPPSGGGE-NH2 [Example 619]"
  Experimental System: "hGIPR (Homo sapiens, UniProt P48546)"
  Result: 10.16
- Substance: "H-Y[Aib]QGT[αMePhe(2-F)]TSD[4Pal][αMeS]I[αMeL]LD[Orn]K([AEEA-γGlu-C18 diacid])AQ[αMe4Pal]EFI[dE][αMeY]LIEGGPSSGAPPPEGGGE-NH2 [Example 759]"
  Experimental System: "hGIPR (Homo sapiens, UniProt P48546)"
  Result: 11.17
